# Test system: HepG2 cells
# Assay Details: HepG2 assay: 14C 2-deoxy-D-glucose transport into HepG2 cells
# Assay type: cell-based
# Run Parameters: Homo sapiens, test compound 100 μM
# inhibition at 100 µM >= 10% gives T, anything below gives F

# Compound, Discrete Label
rows = [
    ("CC(=O)O[C@@H]1O[C@H](C(=O)N2CCN(C(C)(C)C)CC2)[C@@H](OC(C)=O)[C@H](OC(C)=O)[C@H]1OC(C)=O", "F"),
    ("COc1ccc(N2CCN(CC3=C[C@H](OC(C)=O)[C@@H](OC(C)=O)[C@H](OC(C)=O)O3)CC2)cc1", "T"),
    ("COc1ccccc1N1CCN(C(=O)[C@H]2O[C@@H](OC(C)=O)[C@H](OC(C)=O)[C@@H](OC(C)=O)[C@@H]2OC(C)=O)CC1", "F"),
    ("O=C([C@H]1OC(O)[C@H](O)[C@@H](O)[C@@H]1O)N1CCN(c2ccc(Cl)cc2)CC1 (stereo partly drawn)", "T"),
    ("CC(=O)O[C@@H]1OC(CN2CCN(C/C=C/c3ccccc3)CC2)=C[C@H](OC(C)=O)[C@H]1OC(C)=O", "F"),
    ("CC(C)(C)N1CCN(C(=O)[C@H]2OC(O)[C@H](O)[C@@H](O)[C@@H]2O)CC1 (stereo partly drawn)", "T"),
]
